System: Bacillus subtilis
Assay: Antimicrobial activity against Bacillus subtilis DSM 2109 at 10 ug/disk after 24 hrs
Format: functional
Conditions: DSM 2109, 24 h, read-out: IZ

compound | assay_system | zone of inhibition at 10 µg/disc [mm]
CC1=C(CC/C(C)=C/CC/C(C)=C/CCC2=CC(=O)OC2O)C(C)(C)CCC1=O (centres undefined) [ACANTHOLIDE B] | Bacillus subtilis | 12
COC1OC(=O)C=C1CC/C=C(\C)CC/C=C(\C)CCC1=C(C)CCCC1(C)C (centres undefined) | Bacillus subtilis | 9
CCOC1OC(=O)C=C1CC/C=C(\C)CC/C=C(\C)CCC1=C(C)CCCC1(C)C (centres undefined) | Bacillus subtilis | 7
CC1=C(CC/C(C)=C/CC/C(C)=C/CCC2=CC(=O)OC2O)C(C)(C)CCC1 (centres undefined) [LUFFARIELLOLIDE] | Bacillus subtilis | 12

###

System: Candida albicans
Experiment: Antimicrobial activity against Candida albicans at 10 ug/disk after 24 hrs
Format: functional
Conditions: read-out: IZ

molecule | zone of inhibition at 10 µg/disc, mm
CC1=C(CC/C(C)=C/CC/C(C)=C/CCC2=CC(=O)OC2O)C(C)(C)CCC1 (centres undefined) [LUFFARIELLOLIDE] | 10
CC1=C(CC/C(C)=C/CC/C(C)=C/CCC2=CC(=O)OC2O)C(C)(C)CCC1=O (centres undefined) [ACANTHOLIDE B] | 10
CCOC1OC(=O)C=C1CC/C=C(\C)CC/C=C(\C)CCC1=C(C)CCCC1(C)C (centres undefined) | 9
COC1OC(=O)C=C1CC/C=C(\C)CC/C=C(\C)CCC1=C(C)CCCC1(C)C (centres undefined) | 9
